experiment: Cmax in dog at 1 mg/kg, po; format: ADME, organism-based, Canis lupus familiaris; design: dose 1 mg/kg, route oral; details: in vivo
RECORDED ENDPOINT: Cmax (ng/mL)
Enter your answer as a number in ng/mL; do not include the unit.

Challenge: Field request: Cmax | item: `COC(=O)N[C@@H]1CC(C)(C)c2ccc(Nc3nc(NCC(F)F)c4occc4n3)cc2NC1=O`
Response given: 151

====

target: Voltage-gated inwardly rectifying potassium channel KCNH2 (Homo sapiens, UniProt Q12809)
Sequence (Q12809 whole entry): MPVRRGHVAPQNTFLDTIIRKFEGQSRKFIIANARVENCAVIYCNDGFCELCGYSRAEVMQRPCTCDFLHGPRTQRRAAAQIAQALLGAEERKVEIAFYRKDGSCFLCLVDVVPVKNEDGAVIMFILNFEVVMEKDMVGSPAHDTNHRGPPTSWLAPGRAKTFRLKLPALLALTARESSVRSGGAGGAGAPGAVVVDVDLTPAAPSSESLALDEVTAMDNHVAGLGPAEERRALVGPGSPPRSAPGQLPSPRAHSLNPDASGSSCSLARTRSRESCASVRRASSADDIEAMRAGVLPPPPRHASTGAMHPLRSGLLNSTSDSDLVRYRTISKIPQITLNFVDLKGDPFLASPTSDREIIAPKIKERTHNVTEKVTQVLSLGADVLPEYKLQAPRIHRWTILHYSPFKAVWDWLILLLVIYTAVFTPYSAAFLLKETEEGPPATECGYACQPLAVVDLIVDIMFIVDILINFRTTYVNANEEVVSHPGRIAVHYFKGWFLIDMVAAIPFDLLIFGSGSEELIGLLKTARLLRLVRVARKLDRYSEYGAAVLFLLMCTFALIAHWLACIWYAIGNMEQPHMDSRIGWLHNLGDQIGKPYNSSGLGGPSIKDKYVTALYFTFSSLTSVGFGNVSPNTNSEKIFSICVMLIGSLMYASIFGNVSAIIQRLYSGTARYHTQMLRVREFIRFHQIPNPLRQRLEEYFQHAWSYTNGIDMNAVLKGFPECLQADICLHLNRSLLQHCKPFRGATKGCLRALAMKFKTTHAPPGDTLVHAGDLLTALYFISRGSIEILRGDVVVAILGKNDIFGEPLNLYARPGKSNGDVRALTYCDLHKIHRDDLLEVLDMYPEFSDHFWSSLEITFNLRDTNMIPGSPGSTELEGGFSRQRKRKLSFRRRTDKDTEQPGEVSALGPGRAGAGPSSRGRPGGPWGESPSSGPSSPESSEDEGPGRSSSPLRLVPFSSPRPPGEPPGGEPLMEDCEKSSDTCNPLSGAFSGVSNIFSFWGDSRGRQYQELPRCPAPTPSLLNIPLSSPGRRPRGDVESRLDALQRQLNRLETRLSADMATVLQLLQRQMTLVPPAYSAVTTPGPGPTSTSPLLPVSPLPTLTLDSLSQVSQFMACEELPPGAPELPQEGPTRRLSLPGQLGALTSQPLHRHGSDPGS
pIC50: −log10 of the molar value.
RECORDED ENDPOINT: pIC50

Challenge: Field request: pIC50 | item: `COC(=O)N[C@@H]1CC(C)(C)c2ccc(Nc3nc(NCC(F)F)c4occc4n3)cc2NC1=O`
Response given: < 4.70

====

Provide the recorded pIC50 for the entries that follow.
In simple prose, pIC50 is minus the logarithm base ten of a concentration in moles per litre.

Challenge: Recall the recorded pIC50 for `Cc1n[nH]c2cc(Nc3nc(NC4CC4)c4occc4n3)ccc12` with Serine/threonine-protein kinase PAK 4 (Homo sapiens) and state it.
Sequence (O96013 whole entry): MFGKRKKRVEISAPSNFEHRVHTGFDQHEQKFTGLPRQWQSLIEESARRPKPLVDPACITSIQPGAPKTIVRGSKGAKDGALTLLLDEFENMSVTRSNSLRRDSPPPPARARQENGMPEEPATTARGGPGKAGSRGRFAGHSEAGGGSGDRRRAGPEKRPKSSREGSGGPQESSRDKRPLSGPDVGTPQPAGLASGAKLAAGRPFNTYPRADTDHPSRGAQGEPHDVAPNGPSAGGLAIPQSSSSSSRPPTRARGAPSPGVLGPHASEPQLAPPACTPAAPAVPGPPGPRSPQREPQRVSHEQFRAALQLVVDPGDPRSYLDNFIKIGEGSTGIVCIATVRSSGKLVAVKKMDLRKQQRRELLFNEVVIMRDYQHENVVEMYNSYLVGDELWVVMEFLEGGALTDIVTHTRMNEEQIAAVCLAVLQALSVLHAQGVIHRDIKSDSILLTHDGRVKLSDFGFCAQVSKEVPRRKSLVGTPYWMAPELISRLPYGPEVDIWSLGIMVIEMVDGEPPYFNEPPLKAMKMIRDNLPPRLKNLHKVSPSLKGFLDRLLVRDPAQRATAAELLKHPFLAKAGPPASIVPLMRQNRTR
Response given: 5.17

Challenge: Recall the recorded pIC50 for `FC(F)(F)CNc1nc(Nc2ccc3cn[nH]c3c2)nc2ccoc12` with Serine/threonine-protein kinase PAK 4 (Homo sapiens) and state it.
Response given: 5.19

====

Target: Serine/threonine-protein kinase TAO2 (Homo sapiens, UniProt Q9UL54)
Sequence (Q9UL54 whole entry): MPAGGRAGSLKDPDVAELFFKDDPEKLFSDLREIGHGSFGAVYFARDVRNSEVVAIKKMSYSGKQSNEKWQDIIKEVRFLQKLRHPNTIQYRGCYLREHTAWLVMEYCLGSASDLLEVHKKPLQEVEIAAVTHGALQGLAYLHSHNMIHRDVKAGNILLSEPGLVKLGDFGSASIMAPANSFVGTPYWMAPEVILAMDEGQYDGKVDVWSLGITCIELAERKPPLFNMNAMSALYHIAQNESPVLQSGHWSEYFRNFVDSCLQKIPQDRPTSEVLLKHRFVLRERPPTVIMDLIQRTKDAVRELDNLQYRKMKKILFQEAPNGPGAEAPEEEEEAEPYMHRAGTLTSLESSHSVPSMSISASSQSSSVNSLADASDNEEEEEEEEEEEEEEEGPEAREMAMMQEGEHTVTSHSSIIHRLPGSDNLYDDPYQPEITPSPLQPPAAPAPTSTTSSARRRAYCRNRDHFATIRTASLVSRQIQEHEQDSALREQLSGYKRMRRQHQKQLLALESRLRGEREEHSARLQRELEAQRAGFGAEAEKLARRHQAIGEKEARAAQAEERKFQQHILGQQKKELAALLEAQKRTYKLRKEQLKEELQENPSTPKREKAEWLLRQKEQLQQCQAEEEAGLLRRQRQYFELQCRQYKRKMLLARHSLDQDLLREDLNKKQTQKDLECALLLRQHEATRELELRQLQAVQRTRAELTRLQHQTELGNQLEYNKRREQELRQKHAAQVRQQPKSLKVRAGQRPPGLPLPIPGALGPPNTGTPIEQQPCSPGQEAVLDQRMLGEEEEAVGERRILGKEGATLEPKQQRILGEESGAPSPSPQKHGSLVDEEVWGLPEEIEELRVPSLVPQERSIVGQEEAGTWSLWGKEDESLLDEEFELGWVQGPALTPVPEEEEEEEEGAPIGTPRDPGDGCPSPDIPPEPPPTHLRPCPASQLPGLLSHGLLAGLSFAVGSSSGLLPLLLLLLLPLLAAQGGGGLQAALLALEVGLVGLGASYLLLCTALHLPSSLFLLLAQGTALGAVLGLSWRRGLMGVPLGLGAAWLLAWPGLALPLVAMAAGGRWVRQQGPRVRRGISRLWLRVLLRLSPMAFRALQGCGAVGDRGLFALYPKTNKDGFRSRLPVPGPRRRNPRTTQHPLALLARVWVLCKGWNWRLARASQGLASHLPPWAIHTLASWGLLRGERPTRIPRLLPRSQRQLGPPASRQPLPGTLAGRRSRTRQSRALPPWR
RECORDED ENDPOINT: IC50

Challenge: Recall the recorded IC50 for `FC(F)(F)CNc1nc(Nc2ccc(N3CCOCC3)c(Cl)c2)nc2ccoc12` with Serine/threonine-protein kinase TAO2 (Homo sapiens, UniProt Q9UL54) and state it.
Response given: > 10 µM

Challenge: Recall the recorded IC50 for `Cc1n[nH]c2cc(Nc3nc(NC4CC4)c4occc4n3)ccc12` with Serine/threonine-protein kinase TAO2 (Homo sapiens, UniProt Q9UL54) and state it.
Response given: > 10 µM

Challenge: Recall the recorded IC50 for `FC(F)(F)CNc1nc(Nc2ccc3cn[nH]c3c2)nc2ccoc12` with Serine/threonine-protein kinase TAO2 (Homo sapiens, UniProt Q9UL54) and state it.
Response given: > 10 µM
